All figures here come from PubChem BioAssay.

# composite z-score per entry
- assay comment: small-molecule microarray binders of probe aNog, primary screen, biochemical, biotinylated probe, 635/667 nm fluorescence (AID 1115);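 note: probe is biotinylated aNog protein used at 0.15 µg/mL for 1 h at 4 C; z-score combines 667 nm fluorescence of each spot with its signal to noise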
- conditions: higher = more signal

>  <compound>
CN1C(=O)C2C=CC(C(O)c3ccc(I)cc3)N(Nc3ccccc3)C2C1=O (stereo not given)

>  <composite z-score>
0.551

$$$$
>  <compound>
COCCCNC(=O)[C@@]1(c2ccc([N+](=O)[O-])cc2)CC(=O)N(CC23CC4CC(CC(C4)C2)C3)[C@@H]1c1ccc(CO)cc1I

>  <composite z-score>
0.536

$$$$
>  <compound>
C=C(COC)/C(=C/C[C@@H](OC(=O)c1ccncc1)c1ccccc1OCCO)c1cc(C(=O)OC)ccc1OC

>  <composite z-score>
0.0471

$$$$
>  <compound>
CC1CC/C=C\[C@H]2OC34C=CCN(CCN5CCOCC5)C(=O)[C@H]3N(C(C)CO)C(=O)[C@@H]4C2C(=O)O1 (stereo not given in full)

>  <composite z-score>
-0.373

$$$$
>  <compound>
[N-]=[N+]=NCc1ccccc1C[C@@]1(C(=O)N2CCCCC2)N=C(c2ccc(OCCCO)cc2)O[C@@H]1c1ccccc1CN=[N+]=[N-]

>  <composite z-score>
1.31

$$$$
>  <compound>
CC(C)CNC(=O)[C@@]1(C)c2ccccc2C(=O)N(Cc2cc(C(F)(F)F)cc(C(F)(F)F)c2)[C@H]1c1ccc(CO)cc1

>  <composite z-score>
-0.318

$$$$
>  <compound>
C=C/C=C/[C@@H]1C(=C)CN([C@@H](Cc2ccccc2)C(=O)OC)[C@H]1[C@@H](O)Cc1ccccc1

>  <composite z-score>
0.0924

$$$$
>  <compound>
O=C1OCCC=C[C@H]2OC34C=CCN(c5ccc(Cl)cc5)C(=O)[C@H]3N(CCCCCCO)C(=O)[C@@H]4C12 (stereo not given in full)

>  <composite z-score>
0.0422

$$$$
>  <compound>
C=C(CCCC)C(=O)CC[C@H](OC(=O)c1ccccc1-c1ccccc1C(=O)O)c1ccccc1OCCO

>  <composite z-score>
0.397

$$$$
>  <compound>
NC(=O)[C@@H]1[C@H]2C(=O)O[C@H](c3ccccc3)[C@H](c3ccccc3)N2[C@H](c2ccc(OCCO)cc2)[C@@]12C(=O)Nc1ccc(C#CCCO)cc12

>  <composite z-score>
-0.329

$$$$
>  <compound>
COCCOC(=O)N1C(=O)[C@@]2(c3cc(C#CCCO)ccc31)[C@H](C(N)=O)[C@H]1C(=O)O[C@H](c3ccccc3)[C@H](c3ccccc3)N1[C@@H]2c1ccc(OCCO)cc1

>  <composite z-score>
-0.371

$$$$
>  <compound>
Nc1cc(Br)ccc1C(=O)O

>  <composite z-score>
0.0558

$$$$
>  <compound>
CC(C)C[C@@H]1NC(=O)CNC(=O)[C@@]23C(=O)N[C@@H](Cc4ccccc4)C2[C@H](C)[C@@]2(C)O[C@H]2C3/C=C/C/C=C\CNC1=O (stereo not given in full)

>  <composite z-score>
-0.177

$$$$
>  <compound>
NC(=O)N1C(=O)C2C(C1=O)C1C=C(CCCO)C2C(C2CC2)N1Cc1cccc(OC(F)(F)F)c1 (stereo not given)

>  <composite z-score>
0.56

$$$$
>  <compound>
O=c1cccc(-c2ccco2)o1

>  <composite z-score>
-0.0563

$$$$
>  <compound>
C=C[C@@H](C)[C@@H](OC(=O)Nc1ccc(SC)cc1)c1ccc(OCCO)cc1

>  <composite z-score>
-0.358

$$$$
>  <compound>
CCOC(=O)C[C@H]1[C@H](OC(=O)c2ccc(-c3ccccc3)cc2)[C@@H](NC(=O)CC(C)C)c2cc(OCCCO)ccc2N1C(=O)c1ccccc1

>  <composite z-score>
-0.1

$$$$
>  <compound>
C=CCC(OC(C)=O)[C@@H]1[C@@H](N(Cc2cccc3ccccc23)C(=O)Cc2ccc(F)cc2)c2cc(OCCCO)ccc2N1C(=O)c1ccc(-c2ccccc2)cc1 (stereo not given in full)

>  <composite z-score>
0.0812

$$$$
>  <compound>
CC1CC/C=C\[C@H]2OC34C=CCN(C(C)(C)C)C(=O)[C@H]3N(C(CO)C(C)C)C(=O)[C@@H]4C2C(=O)O1 (stereo not given in full)

>  <composite z-score>
-0.316

$$$$
>  <compound>
CCOC(=O)C[C@H]1[C@H](OC(=O)c2ccccc2-c2ccccc2)[C@@H](NC(=O)c2ccccc2)c2cc(OCCCO)ccc2N1C(=O)c1ccccc1

>  <composite z-score>
-0.0926

$$$$
>  <compound>
O=C(CS)NCCCCCNC(=O)[C@@H]1C[C@@H]2C(=O)N[C@@H](Cc3ccccc3)C(=O)N2[C@@H]1c1cccc(OCCO)c1

>  <composite z-score>
-0.458

$$$$
>  <compound>
COCCCNC(=O)[C@@]1(Sc2ccc(C)cc2)CC(=O)N(C(C)C)[C@@H]1c1ccc(CO)cc1I

>  <composite z-score>
-0.289

$$$$
>  <compound>
C[C@]1(C(=O)O)c2ccccc2C(=O)N(Cc2ccc(OC(F)(F)F)cc2)[C@H]1c1ccc(CO)cc1

>  <composite z-score>
0.265

$$$$
>  <compound>
CN(C)CCCNC(=O)[C@@H]1c2ccccc2C(=O)N(C2CCCCC2)[C@H]1c1ccc(CO)cc1

>  <composite z-score>
-0.312

$$$$
>  <compound>
COC(=O)C1N=C(c2ccc(OCCCO)cc2)N(c2ccccc2)O1 (stereo not given)

>  <composite z-score>
0.438

$$$$
>  <compound>
COc1ccc([Si](C)(C)[C@H]2[C@H](CC(=O)N3Cc4ccccc4C[C@H]3CO)O[C@@]3(C(=O)N(Cc4ccc(N5C(=O)c6cccc7cccc5c67)cc4)c4ccccc43)[C@@H]2C)cc1

>  <composite z-score>
-0.49

$$$$
>  <compound>
O=C1C2C=CC(C(O)c3cccc(O)c3)N(Nc3ccccc3)C2C(=O)N1c1ccccc1 (stereo not given)

>  <composite z-score>
0.496

$$$$
>  <compound>
C=C[C@@H](C)[C@H](O)c1ccc(OCCO)cc1

>  <composite z-score>
-0.446

$$$$
>  <compound>
COCCOC(=O)N1C(=O)[C@@]2(c3cc(C#CCC(C(=O)OC)C(=O)OC)ccc31)[C@H](C(=O)NC[C@H](O)c1ccccc1)[C@H]1C(=O)O[C@H](c3ccccc3)[C@H](c3ccccc3)N1[C@@H]2c1ccc(OCCO)cc1

>  <composite z-score>
-0.367

$$$$
>  <compound>
CC1(C)C(=O)C(c2ccccc2)=C2CN3C(=O)N(CCc4ccccc4)C(=O)C3(Cc3ccc(C(F)(F)F)cc3)C=C21 (stereo not given)

>  <composite z-score>
1.8

$$$$
